- TARGET DESC: T1, full length human KLRG1 (human, UniProt Q96E93 1-195)
- T1 sequence (looked up): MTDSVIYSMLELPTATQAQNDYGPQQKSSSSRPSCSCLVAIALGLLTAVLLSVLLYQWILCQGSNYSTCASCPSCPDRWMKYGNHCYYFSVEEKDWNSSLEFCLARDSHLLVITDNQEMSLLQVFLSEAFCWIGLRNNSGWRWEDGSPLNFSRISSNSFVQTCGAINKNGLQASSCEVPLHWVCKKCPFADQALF
- MEASUREMENT PROTOCOL: cell-based or functional assay
REPORTED PROPERTY: IFNγ

ABC_G1N08 (antibody, V domains shown, Mouse hybridoma monoclonal antibody) VH: QVQLQQSGAELAKPGASVKLSCKASGYTFTSYFLHWVKQRPGQGLEWIGYMNPSSGYTKCNQKFKDKATLTADKSSSTAYMQVSSLTYEDSAVYYCARDRIGYWDFDVWGTGTTVTVSS VL: DVVMTQSQKFMSTTVGDRVSITCKASQNVGTAVAWYQQKPGQSPKLLIYSASNRYTGVPDRFTGSGSGTDFTLTITNMQSEDLADYFCQQYSSYLTFGAGTKLDLK :: 1040 pg/mL
